Please go through the items and note down their IC50.
- system-name: EHMT1 (Homo sapiens)
- Sequence (Q9H9B1 whole entry, species assumed): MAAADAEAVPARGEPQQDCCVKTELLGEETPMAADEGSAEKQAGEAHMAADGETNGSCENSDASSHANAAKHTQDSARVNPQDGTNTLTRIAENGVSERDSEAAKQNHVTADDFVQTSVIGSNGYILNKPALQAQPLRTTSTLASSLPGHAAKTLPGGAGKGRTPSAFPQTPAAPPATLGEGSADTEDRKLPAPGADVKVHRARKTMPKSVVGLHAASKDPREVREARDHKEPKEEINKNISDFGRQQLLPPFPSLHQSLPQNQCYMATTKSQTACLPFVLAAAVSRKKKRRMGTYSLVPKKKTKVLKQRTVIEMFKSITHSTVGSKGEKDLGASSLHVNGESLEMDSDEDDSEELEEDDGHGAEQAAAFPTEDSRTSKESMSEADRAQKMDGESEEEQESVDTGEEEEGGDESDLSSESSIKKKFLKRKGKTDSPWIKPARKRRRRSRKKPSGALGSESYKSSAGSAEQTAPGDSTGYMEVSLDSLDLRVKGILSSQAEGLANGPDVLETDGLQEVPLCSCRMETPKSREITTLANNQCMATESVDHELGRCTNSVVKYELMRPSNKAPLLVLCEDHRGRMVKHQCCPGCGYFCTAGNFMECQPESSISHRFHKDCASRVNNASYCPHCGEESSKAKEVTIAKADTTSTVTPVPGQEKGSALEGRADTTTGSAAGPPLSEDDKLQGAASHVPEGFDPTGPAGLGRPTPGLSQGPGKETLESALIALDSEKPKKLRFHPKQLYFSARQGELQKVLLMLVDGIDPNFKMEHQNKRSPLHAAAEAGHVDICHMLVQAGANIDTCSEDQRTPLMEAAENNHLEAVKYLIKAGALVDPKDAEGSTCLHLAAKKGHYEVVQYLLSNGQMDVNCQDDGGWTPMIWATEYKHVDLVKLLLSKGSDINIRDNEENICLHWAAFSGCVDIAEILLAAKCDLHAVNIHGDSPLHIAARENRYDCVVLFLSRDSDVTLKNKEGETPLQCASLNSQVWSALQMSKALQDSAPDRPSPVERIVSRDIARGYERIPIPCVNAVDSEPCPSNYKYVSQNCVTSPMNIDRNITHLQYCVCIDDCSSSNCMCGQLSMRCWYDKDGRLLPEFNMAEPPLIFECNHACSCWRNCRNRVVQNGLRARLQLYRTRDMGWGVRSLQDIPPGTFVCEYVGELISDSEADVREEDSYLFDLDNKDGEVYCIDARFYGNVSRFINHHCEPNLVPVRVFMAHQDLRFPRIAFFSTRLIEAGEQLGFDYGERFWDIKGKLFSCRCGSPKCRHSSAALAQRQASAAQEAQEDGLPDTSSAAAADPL
- protocol: EHMT1 enzyme assay on peptide substrate (EHMT1 PEP)
- Format: biochemical
- reported-conditions: Table II; read-out: EHMT1 PEP (IC50 μM)

Query :: Can you share its IC50? I mean this molecule: "CCc1cc(NC)nc(Nc2ccc(OC)c(OCCCN3CCCC3)c2)n1"
Result :: < 0.1 µM

Query :: Same read-out for "COc1ccc(Nc2nccc(NCC3CCN(C(C)=O)CC3)n2)cc1OCCCNc1ccccc1" ?
Result :: > 10 µM

Query :: Now consider "COc1ccc(Nc2nccc(NCC3CCNCC3)n2)cc1OCCCN1CCCC1" and answer again.
Result :: < 0.1 µM

Query :: For "O=C1Cc2cc(C(=O)NCCNc3ccnc(NCC4CCNCC4)n3)ccc2N1" then?
Result :: 1 to 10 µM

Query :: Again, but for "COc1ccc(Nc2ccnc3[nH]ccc23)cc1OCCCN1CCCC1"
Result :: 1 to 10 µM

Query :: // query: "COc1ccc(Nc2nccc(NCCS(=O)(=O)N(C)C)n2)cc1OCCCN1CCCC1"
Result :: 0.1 to 1 µM

Query :: How about "COc1ccc(CNc2ccnc(Nc3ccc(OC)c(OCCCN4CCCC4)c3)n2)cc1" ?
Result :: < 0.1 µM

Query :: "COc1ccc(Nc2nccc(NCC3CCOCC3)n2)cc1OCCCN1CCCC1" , same question.
Result :: < 0.1 µM

Query :: Here is the next molecule: "O=C(NCCNc1ccnc(NCC2CCNCC2)n1)c1cccc(N2CCCC2)c1"
Result :: > 10 µM
